The reader will find reported IP-1 Ymax (%) values listed item by item below.
- Study Target: AGTR1 (Homo sapiens, UniProt P30556)
- Construct: host or cells: Pathunter CHO-K1 AGTR1 β-arrestin cell line (CHO-K1)
- Sequence (P30556 1-359): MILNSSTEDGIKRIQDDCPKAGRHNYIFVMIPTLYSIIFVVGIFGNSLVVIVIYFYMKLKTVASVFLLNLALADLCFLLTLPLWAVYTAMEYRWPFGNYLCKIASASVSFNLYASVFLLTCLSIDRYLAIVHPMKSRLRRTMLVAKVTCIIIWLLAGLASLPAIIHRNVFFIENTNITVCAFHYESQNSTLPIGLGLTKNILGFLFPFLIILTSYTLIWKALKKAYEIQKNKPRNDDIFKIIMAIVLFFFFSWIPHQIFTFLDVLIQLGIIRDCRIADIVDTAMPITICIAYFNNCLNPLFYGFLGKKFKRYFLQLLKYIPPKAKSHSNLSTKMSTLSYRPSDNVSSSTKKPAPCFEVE
- Assay Procedure: DiscoveRx IP1 accumulation assay (HTRF), agonist mode, Pathunter CHO-K1 AGTR1 β-arrestin cell line
- Type: cell-based
Your answer should be a plain number; it is taken to be in %.

Example cases with answers are listed next.
Compound: CCC1=NC2(CCOC2)C(=O)N1Cc1ccc(-c2cc(-c3ccccc3O)ccc2-c2nnn[nH]2)cc1 (single isomer, unassigned) [Example 170]
IP-1 Ymax (%): 13.2

Compound: CCc1nc2c(C)cc(C)nc2n1Cc1ccc(-c2cc(Oc3cccc(OC(F)(F)F)c3)ccc2-c2nnn[nH]2)cc1
IP-1 Ymax (%): 2.5

Attention now shifts to the item below.
Entry "CCc1nc2c(C)cc(C)nc2n1Cc1ccc(-c2cc(Oc3ccc(F)cc3F)ccc2-c2nnn[nH]2)cc1" ; IP-1 Ymax (%) = 19.9

---

- Study Target: UniProt:P30556
- Sequence (P30556 1-359): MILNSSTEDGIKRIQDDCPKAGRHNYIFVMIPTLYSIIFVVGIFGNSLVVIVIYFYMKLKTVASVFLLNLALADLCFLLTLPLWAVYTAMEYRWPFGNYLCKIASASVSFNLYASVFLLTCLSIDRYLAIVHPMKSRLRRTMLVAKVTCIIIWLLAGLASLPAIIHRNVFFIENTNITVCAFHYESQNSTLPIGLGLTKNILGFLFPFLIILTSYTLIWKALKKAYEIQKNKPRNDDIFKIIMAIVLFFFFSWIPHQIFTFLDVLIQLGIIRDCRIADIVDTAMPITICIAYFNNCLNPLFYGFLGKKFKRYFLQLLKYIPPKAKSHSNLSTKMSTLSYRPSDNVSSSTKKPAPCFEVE
- Assay Procedure: BRET β-arrestin2 biosensor assay, higher receptor expression (hAT1R 5 ng/well), HEK293 cells
- Format: cell-based
- Assay Setup: High AT1R Expression
Lab note - cut at 70 nM for EC50: true (1) if strictly below, false (0) if not.

Molecule: CCCCC1=NC2(CCCC2)C(=O)N1Cc1ccc(-c2cc(-c3cccs3)ccc2-c2nn[nH]n2)cc1
Class Label: true (1)
--
Molecule: CCOc1nc2cccc(C(=O)O)c2n1Cc1ccc(-c2cc(-c3ccc(C(=O)N(C)C)cc3)ccc2C(=O)O)cc1
Class Label: false (0)
--
Molecule: CCc1nc2c(C)cc(C)nc2n1Cc1ccc(-c2cc(N3CCc4ccccc43)ccc2-c2nn[nH]n2)cc1
Class Label: true (1)

Quick check: EC50 of CCCCC1=NC2(CCOC2)C(=O)N1Cc1ccc(-c2cc(-c3ccccc3)ccc2-c2nnn[nH]2)cc1 (single isomer, unassigned) [Example 147] under 70 nM? false (0)

---

- Study Target: AGTR1 (Homo sapiens)
- Construct: host or cells: Pathunter CHO-K1 AGTR1 β-arrestin cell line (CHO-K1)
- Assay Procedure: DiscoveRx β-arrestin2 recruitment assay (enzyme complementation, Pathunter CHO-K1 AGTR1 β-arrestin cell line)
- Type: cell-based
- Assay Setup: DiscoveRx β-arrestin2 recruitment
The reader will find reported log10(EC50) values listed item by item below.
Quick note: numbers are log10 of EC50, with nM as the unit.

Example cases with answers are listed next.
Molecule: CCc1nc2c(C)cc(C)nc2n1Cc1ccc(-c2cc(-c3cccc4cnccc34)ccc2-c2nn[nH]n2)cc1 [Example 16]
Value Measured: 1.78
//
Molecule: CCCCc1nc(Cl)c(C(=O)O)n1Cc1ccc(-c2cc(N3CCC[C@H](C)C3)ccc2-c2noc(=O)[nH]2)cc1 [Example 407]
Value Measured: 2.24
//
Molecule: CCc1nc2c(C)cc(C)nc2n1Cc1ccc(-c2cc(-c3ccccc3)ccc2-c2nn[nH]n2)cc1F [Example 264]
Value Measured: 1.28
//
Molecule: CCc1nc2c(C)cc(C)nc2n1Cc1ccc(-c2cc(-c3ccc(OC(F)(F)F)cc3)ccc2-c2nn[nH]n2)cc1 [Example 6]
Value Measured: 1.15

Entry CCc1nc2c(C)cc(C)nc2n1Cc1ccc(-c2cc(-c3ccccc3F)ccc2-c2nn[nH]n2)cc1 [Example 19] ; log10(EC50) = 0.88

---

- Study Target: AGTR1 (Homo sapiens)
- Construct: host or cells: Pathunter CHO-K1 AGTR1 β-arrestin cell line (CHO-K1)
- Assay Procedure: DiscoveRx IP1 accumulation assay (HTRF), agonist mode, Pathunter CHO-K1 AGTR1 β-arrestin cell line
- Assay type: cell-based
- Assay Setup: read-out: IP-1 EC50
The reader will find reported EC50 values listed item by item below.
Your answer should be a plain number; it is taken to be in nM.

Chemical Smiles: CCCCC1=NC2(CCCC2)C(=O)N1Cc1ccc(-c2cc(-c3ccccc3)ccc2-c2noc(=O)[nH]2)cc1
EC50 / nM: 18.3

Summary line: "CCc1nc2c(C)cc(C)nc2n1Cc1ccc(-c2cc(-c3ccccc3)ccc2-c2nsc(=O)[nH]2)cc1" , AGTR1 (Homo sapiens), reported EC50 = 89.4

Summary line: "CCc1nc2c(C)cc(C)nc2n1Cc1ccc(-c2cc(-n3cc(C4CC4)nn3)ccc2-c2nnn[nH]2)cc1" , AGTR1 (Homo sapiens), reported EC50 = 25.2

---

- Study Target: AGTR1 (Homo sapiens, UniProt P30556)
- Construct: host or cells: Pathunter CHO-K1 AGTR1 β-arrestin cell line (CHO-K1)
- Assay Procedure: DiscoveRx β-arrestin2 recruitment assay (enzyme complementation, Pathunter CHO-K1 AGTR1 β-arrestin cell line)
- Assay type: cell-based
- Assay Setup: DiscoveRx β-arrestin2 recruitment
Lab note - cut at 30 nM for EC50: 1 if strictly below, 0 if not.

Molecule: CCCCC(=O)N(Cc1ccc(-c2cc(-c3ccccc3)ccc2-c2nn[nH]n2)cc1)[C@]1(C(=O)O)CC[C@@H](O)CC1 [Example 283]
Class Label: 0

Quick check: EC50 of CCc1nc2c(C)cc(C)nc2n1Cc1ccc(-c2cc(Oc3ccccc3)cc(C)c2-c2nnn[nH]2)cc1 [Example 211] under 30 nM? 0

Quick check: EC50 of CCOc1nc2cccc(C(=O)O)c2n1Cc1ccc(-c2cc(-c3ccccn3)ccc2-c2noc(=O)[nH]2)cc1 [Example 303] under 30 nM? 0

Quick check: EC50 of CCCCC(=O)N(Cc1ccc(-c2cc(Oc3cccnc3)ccc2-c2nn[nH]n2)cc1)[C@H](C(=O)O)C(C)C [Example 436] under 30 nM? 0

Quick check: EC50 of CCc1nc2c(C)cc(C)nc2n1Cc1ccc(-c2cc(-c3cccc(OC)n3)ccc2-c2nn[nH]n2)cc1 [Example 29] under 30 nM? 1

Quick check: EC50 of CCOc1nc2cccc(C(=O)O)c2n1Cc1ccc(-c2cc(-c3cc(OC(F)F)ccn3)ccc2-c2noc(=O)[nH]2)cc1 [Example 302] under 30 nM? 1

Quick check: EC50 of CCc1nc2c(C)cc(C)nc2n1Cc1ccc(-c2cc(-c3cn(C)nn3)ccc2-c2nnn[nH]2)cc1 [Example 243] under 30 nM? 1

Quick check: EC50 of CCCCOC(=O)NS(=O)(=O)c1sc(-c2cccnc2OC)cc1-c1ccc(Cn2c(CC)nc3c(C)cc(C)nc32)cc1 [Example 47] under 30 nM? 1

Quick check: EC50 of CCc1nc2c(C)cc(C)nc2n1Cc1ccc(-c2cc(Oc3ccccc3)ccc2C(=O)O)cc1 [Example 213] under 30 nM? 0

---

The reader will find reported DiscoveRx β-arrestin2 Ymax (%) values listed item by item below.
- Study Target: AGTR1 (Homo sapiens, UniProt P30556)
- Construct: host or cells: Pathunter CHO-K1 AGTR1 β-arrestin cell line (CHO-K1)
- Assay Procedure: DiscoveRx β-arrestin2 recruitment assay (enzyme complementation, Pathunter CHO-K1 AGTR1 β-arrestin cell line)
- Type: cell-based
- Assay Setup: DiscoveRx β-arrestin2 recruitment, maximal response
Your answer should be a plain number; it is taken to be in %.

Entry "CCCCC1=NC2(CCCC2)C(=O)N1Cc1ccc(-c2cc(-n3ccc4ccccc43)ccc2-c2nn[nH]n2)cc1" ; DiscoveRx β-arrestin2 Ymax (%) = 31.0

Entry "CCCCc1ncc(-c2nnc(C)o2)n1Cc1ccc(-c2cc(-c3ccccc3)ccc2-c2nn[nH]n2)cc1" ; DiscoveRx β-arrestin2 Ymax (%) = 16.3

Entry "CCCCC(=O)N(Cc1ccc(-c2cc(-c3ccccc3)ccc2-c2noc(=O)[nH]2)cc1)C1(C(=O)OC)CCCCC1" ; DiscoveRx β-arrestin2 Ymax (%) = 35.2

Entry "CCCCC(=O)N(Cc1ccc(-c2cc(-c3ccc(NC(C)=O)cc3)ccc2-c2nn[nH]n2)cc1)C1(C(=O)O)CCCCC1" ; DiscoveRx β-arrestin2 Ymax (%) = 10.0

Entry "CCCCC1=NC2(CCCC2)C(=O)N1Cc1ccc(-c2cc(-n3ccc4ccc(F)cc43)ccc2-c2nn[nH]n2)cc1" ; DiscoveRx β-arrestin2 Ymax (%) = 17.4

Entry "CCCCc1nc(Cl)c(C(=O)O)n1Cc1ccc(-c2cc(-c3cc(C)ccn3)ccc2-c2nn[nH]n2)cc1" ; DiscoveRx β-arrestin2 Ymax (%) = 73.6

Entry "CCCCc1ncc(C(=O)NCc2cnn(C)c2)n1Cc1ccc(-c2cc(-c3ccccc3)ccc2-c2nn[nH]n2)cc1" ; DiscoveRx β-arrestin2 Ymax (%) = 44.5

Entry "CCCn1cc(-c2ccc(-c3nnn[nH]3)c(-c3ccc(Cn4c(CC)nc5c(C)cc(C)nc54)cc3)c2)nn1" ; DiscoveRx β-arrestin2 Ymax (%) = 60.8

Entry "CCCCOC(=O)NS(=O)(=O)c1sc(-c2cccnc2OC)cc1-c1ccc(Cn2c(CC)nc3c(C)cc(C)nc32)cn1" ; DiscoveRx β-arrestin2 Ymax (%) = 20.6

Entry "CCc1nc2c(C)cc(C)nc2n1Cc1ccc(-c2cc(Nc3ccccc3)ccc2-c2nn[nH]n2)cc1" ; DiscoveRx β-arrestin2 Ymax (%) = 32.6

Entry "CCc1nc2c(C)cc(C)nc2n1Cc1ccc(-c2cc(N3CCC(F)(F)C3)ccc2-c2nn[nH]n2)cc1" ; DiscoveRx β-arrestin2 Ymax (%) = 21.1

Entry "CCc1nc2c(C)cc(C)nc2n1Cc1ccc(-c2cc(Oc3cccc(Cl)c3)ccc2-c2nnn[nH]2)cc1" ; DiscoveRx β-arrestin2 Ymax (%) = 21.2

Entry "CCc1nc2c(C)cc(C)nc2n1Cc1ccc(-c2cc(N3CCC(C)CC3)ccc2-c2nn[nH]n2)cc1" ; DiscoveRx β-arrestin2 Ymax (%) = 34.3

Entry "CCc1nc2c(C)cc(C)nc2n1Cc1ccc(-c2cc(-c3ccccc3)ccc2C(=O)NS(C)(=O)=O)cc1" ; DiscoveRx β-arrestin2 Ymax (%) = 34.7

Entry "CCCCc1ncc(C(=O)NCC(C)C)n1Cc1ccc(-c2cc(-c3ccccc3)ccc2-c2nn[nH]n2)cc1" ; DiscoveRx β-arrestin2 Ymax (%) = 39.1

Entry "CCCCC1=NC2(CCCC2)C(=O)N1Cc1ccc(-c2cc(-c3ccccc3)ccc2-c2noc(=O)[nH]2)cc1" ; DiscoveRx β-arrestin2 Ymax (%) = 47.4
